The origin of these recorded values is BindingDB's records for doi:10.1016/0960-894X(95)00327-P.

# key: entry, value: IC50
# studyTarget: Gastrin/cholecystokinin type B receptor (Cavia porcellus)
# experimentalProtocol: Binding activity towards cholecystokinin-B (CCK-B) receptor in guinea pig cortex
valueKind: IC50 (nM)

smilesRecord: CCS(=O)(=O)NC(=O)c1cccc(NC(=O)N[C@@H]2C[C@H](c3ccccc3)c3ccc(C)cc3N(CC(=O)NC(C)(C)C)C2=O)c1
valueKind: IC50
quantitativeReadout: 1
--
smilesRecord: Cc1ccc2c(c1)N(CC(=O)NC(C)(C)C)C(=O)[C@H](NC(=O)Nc1cccc(C(=O)NS(=O)(=O)Cc3ccccc3)c1)C[C@@H]2c1ccccc1
valueKind: IC50
quantitativeReadout: 4.2
--
smilesRecord: COC(=O)c1cccc(NC(=O)N[C@@H]2C[C@H](c3ccccc3)c3ccc(C)cc3N(CC(=O)NC(C)(C)C)C2=O)c1
valueKind: IC50
quantitativeReadout: 1.4

---

IC50 values by entry
# studyTarget: Gastrin/cholecystokinin type B receptor (Cavia porcellus)
# experimentalProtocol: Binding activity towards cholecystokinin-B (CCK-B) receptor in guinea pig cortex
valueKind: IC50

smilesRecord: COC(=O)c1cccc(NC(=O)N[C@@H]2C[C@H](C3CCCCC3)c3ccc(C)cc3N(CC(=O)NC(C)(C)C)C2=O)c1
result: 0.6 nM
//
smilesRecord: Cc1ccc2c(c1)N(CC(=O)NC(C)(C)C)C(=O)[C@H](NC(=O)Nc1cccc(-c3nnn[nH]3)c1)C[C@@H]2c1ccccc1
result: 0.81 nM
//
smilesRecord: Cc1ccc2c(c1)N(CC(=O)NC(C)(C)C)C(=O)[C@H](NC(=O)Nc1cccc(C(=O)NS(=O)(=O)c3ccccc3C)c1)C[C@@H]2c1ccccc1
result: 7.9 nM
//
smilesRecord: Cc1ccc2c(c1)N(CC(=O)NC(C)(C)C)C(=O)[C@H](NC(=O)Nc1cccc(-c3nnn[nH]3)c1)C[C@@H]2C1CCCCC1
result: 0.22 nM

---

# studyTarget: Gastrin/cholecystokinin type B receptor (Cavia porcellus)
# experimentalProtocol: Binding activity towards cholecystokinin-B (CCK-B) receptor in guinea pig cortex
Threshold 2 nM. IC50 below it: MET. IC50 at it or above: NOT MET.

smilesRecord: Cc1ccc2c(c1)N(CC(=O)NC(C)(C)C)C(=O)[C@H](NC(=O)Nc1cccc(C(=O)NS(C)(=O)=O)c1)C[C@@H]2c1ccccc1
studyTarget: Gastrin/cholecystokinin type B receptor (Cavia porcellus)
qualitativeLabel: MET
//
smilesRecord: Cc1ccc2c(c1)N(CC(=O)NC(C)(C)C)C(=O)[C@H](NC(=O)Nc1cccc(C(=O)NS(=O)(=O)C(F)(F)F)c1)C[C@@H]2c1ccccc1
studyTarget: Gastrin/cholecystokinin type B receptor (Cavia porcellus)
qualitativeLabel: NOT MET
//
smilesRecord: Cc1ccc2c(c1)N(CC(=O)NC(C)(C)C)C(=O)[C@H](NC(=O)Nc1cccc(C(=O)O)c1)C[C@@H]2c1ccccc1
studyTarget: Gastrin/cholecystokinin type B receptor (Cavia porcellus)
qualitativeLabel: NOT MET
//
smilesRecord: Cc1ccc2c(c1)N(CC(=O)NC(C)(C)C)C(=O)[C@H](NC(=O)Nc1cccc(-c3nnn[nH]3)c1)C[C@@H]2C(C)C
studyTarget: Gastrin/cholecystokinin type B receptor (Cavia porcellus)
qualitativeLabel: MET
//
smilesRecord: Cc1ccc2c(c1)N(CC(=O)NC(C)(C)C)C(=O)[C@H](NC(=O)Nc1cccc(C(=O)NS(C)(=O)=O)c1)C[C@@H]2C1CCCCC1
studyTarget: Gastrin/cholecystokinin type B receptor (Cavia porcellus)
qualitativeLabel: MET
//
smilesRecord: Cc1ccc2c(c1)N(CC(=O)NC(C)(C)C)C(=O)[C@H](NC(=O)Nc1cccc(-c3nnn[nH]3)c1)C[C@@H]2Cc1ccccc1
studyTarget: Gastrin/cholecystokinin type B receptor (Cavia porcellus)
qualitativeLabel: MET
//
smilesRecord: Cc1ccc2c(c1)N(CC(=O)NC(C)(C)C)C(=O)[C@H](NC(=O)Nc1cccc(C(=O)NS(=O)(=O)c3ccccc3)c1)C[C@@H]2c1ccccc1
studyTarget: Gastrin/cholecystokinin type B receptor (Cavia porcellus)
qualitativeLabel: NOT MET
